# System: A549-ACE2
# protocol_details: drug-induced phospholipidosis relative to tamoxifen; higher = more phospholipidosis
# setup_conditions: 0.3 µM; 48 h
The reader will find reported drug-induced phospholipidosis values listed item by item below.

smiles_representation: Cc1c(-c2ccc(O)cc2)n(Cc2ccc(OCCN3CCCCCC3)cc2)c2ccc(O)cc12
drug-induced phospholipidosis: 0.36%

smiles_representation: CC[C@@H](C)CNCC(=O)N1CCc2sccc2[C@@H]1COc1cccc(C)c1
drug-induced phospholipidosis: 1.76%

smiles_representation: Cc1ncc(NC(=O)c2ccc(CN3CCN(C)CC3)c(C(F)(F)F)c2)cc1Nc1nccc(-c2cccnc2)n1
drug-induced phospholipidosis: 3.51%

smiles_representation: CCN(CC)CCOC(=O)C1(C2CCCCC2)CCCCC1
drug-induced phospholipidosis: 6.16%

smiles_representation: COc1cccc(CCc2ccccc2OCC[C@@H]2C[C@@H](O)CN2C)c1
drug-induced phospholipidosis: 5.49%

smiles_representation: COc1ccc2cc1Oc1ccc(cc1)C[C@H]1c3c(cc4c(c3Oc3cc5c(cc3OC)CCN(C)[C@@H]5C2)OCO4)CCN1C
drug-induced phospholipidosis: 6.7%

smiles_representation: Clc1ccc(N/N=C(\c2ccccc2)c2ccccn2)nc1
drug-induced phospholipidosis: 6.34%

====

# Tested on: Vero E6
# protocol_details: cell viability relative to DMSO; higher = less toxic
# setup_conditions: 72 h; 10 nM
The reader will find reported cell viability values listed item by item below.

molecule: CCOC(=O)c1ccc(O)cc1
unit_of_measure: %
cell viability: 99.7
//
molecule: COC(=O)Nc1nc2cc([S+]([O-])c3ccccc3)ccc2[nH]1 (stereo not drawn)
unit_of_measure: %
cell viability: 106
//
molecule: O[C@@H](COc1cccc2ncccc12)CN1CCN([C@@H]2c3ccccc3[C@@H]3[C@H](c4ccccc42)C3(F)F)CC1
unit_of_measure: %
cell viability: 105
//
molecule: COc1cc2c(cc1OC)CN(CCc1ccc(NC(=O)c3cc(OC)c(OC)cc3NC(=O)c3cnc4ccccc4c3)cc1)CC2
unit_of_measure: %
cell viability: 94.5
//
molecule: CCOC(=O)[C@@H](C)Oc1cccc2c(=O)n(CC(=O)Nc3ccc4c(c3)OCCO4)ccc12
unit_of_measure: %
cell viability: 99.4
//
molecule: O=C(Nc1c(Cl)cncc1Cl)c1ccc(OC(F)F)c(OCC2CC2)c1
unit_of_measure: %
cell viability: 91.2
//
molecule: CN1CC(=O)N=C1NC(=O)Nc1cccc(Cl)c1
unit_of_measure: %
cell viability: 97
//
molecule: Cc1ccc(S(=O)(=O)OCC(=O)Nc2ccc(C(=O)O)c(O)c2)cc1
unit_of_measure: %
cell viability: 97.6

====

# Tested on: Vero E6
# protocol_details: cell viability relative to DMSO; higher = less toxic
# setup_conditions: 72 h; 1 nM

compound: CCOc1ccccc1OC(c1ccccc1)C1CNCCO1 (stereo not given)
cell viability: 102%
--
compound: COc1ccc2c3c([nH]c2c1)[C@H](CC(C)C)N1C(=O)[C@H](CCC(=O)OC(C)(C)C)NC(=O)[C@@H]1C3
cell viability: 99.3%
--
compound: CN(C)[C@@H](CCOc1cccc2ccccc12)c1ccccc1
cell viability: 97.5%
--
compound: CC1=C(/C=C/C(C)=C/C=C/C(C)=C/C=C/C=C(C)/C=C/C=C(C)/C=C/C2=C(C)C(=O)[C@@H](O)CC2(C)C)C(C)(C)C[C@H](O)C1=O
cell viability: 102%
--
compound: CCCc1c(OCC(O)COc2ccc3c(=O)cc(C(=O)O)oc3c2CCC)ccc(C(C)=O)c1O (stereo not given)
cell viability: 102%
